The reported measurements were obtained from the kinase profiling compilation of Christmann-Franck et al. (2016).

assayed-target: HIPK3 (human) (UniProt Q9H422)
Sequence (Q9H422 whole entry, looked up): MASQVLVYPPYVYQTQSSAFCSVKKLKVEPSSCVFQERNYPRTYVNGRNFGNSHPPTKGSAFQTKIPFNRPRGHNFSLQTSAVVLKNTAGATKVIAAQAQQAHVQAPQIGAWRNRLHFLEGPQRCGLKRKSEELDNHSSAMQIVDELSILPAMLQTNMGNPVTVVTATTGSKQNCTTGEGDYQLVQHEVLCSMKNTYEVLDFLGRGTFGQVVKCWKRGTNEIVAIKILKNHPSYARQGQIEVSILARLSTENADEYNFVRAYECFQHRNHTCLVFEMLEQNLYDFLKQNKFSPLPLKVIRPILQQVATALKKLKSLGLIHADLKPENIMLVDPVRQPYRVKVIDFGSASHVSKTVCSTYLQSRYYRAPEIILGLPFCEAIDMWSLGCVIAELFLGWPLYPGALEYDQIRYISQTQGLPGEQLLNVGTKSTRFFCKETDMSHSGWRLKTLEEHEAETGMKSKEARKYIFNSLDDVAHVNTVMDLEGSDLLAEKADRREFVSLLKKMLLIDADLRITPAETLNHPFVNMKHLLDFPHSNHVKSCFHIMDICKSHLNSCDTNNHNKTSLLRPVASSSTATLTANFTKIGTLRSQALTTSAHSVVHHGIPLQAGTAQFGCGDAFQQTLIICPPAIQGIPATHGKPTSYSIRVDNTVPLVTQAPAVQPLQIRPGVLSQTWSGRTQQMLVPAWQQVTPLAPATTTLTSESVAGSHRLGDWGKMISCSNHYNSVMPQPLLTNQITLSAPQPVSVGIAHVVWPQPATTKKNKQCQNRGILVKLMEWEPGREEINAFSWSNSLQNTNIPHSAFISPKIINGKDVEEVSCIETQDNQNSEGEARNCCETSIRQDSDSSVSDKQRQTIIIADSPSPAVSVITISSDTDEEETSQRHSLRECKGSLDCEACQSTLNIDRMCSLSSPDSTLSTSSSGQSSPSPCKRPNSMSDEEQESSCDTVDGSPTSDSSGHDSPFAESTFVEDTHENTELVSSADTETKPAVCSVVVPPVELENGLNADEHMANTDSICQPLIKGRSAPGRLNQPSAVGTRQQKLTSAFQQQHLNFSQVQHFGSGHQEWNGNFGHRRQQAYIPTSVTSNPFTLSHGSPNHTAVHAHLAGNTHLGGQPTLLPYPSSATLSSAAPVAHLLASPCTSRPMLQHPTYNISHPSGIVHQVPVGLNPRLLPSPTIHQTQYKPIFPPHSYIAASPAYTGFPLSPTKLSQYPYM
protocol-description: radiometric filter-binding kinase assay, Kinase HotSpot
condition-parameters: compound 0.5 µM; ATP 10 µM
observable: residual activity (%)
The response must be a number in % with no trailing unit.

Solved cases below.
[
  {
    "item-smiles": "COc1ccc(S(=O)(=O)N(CCO)c2ccccc2CN(C)C/C=C/c2ccc(Cl)cc2)cc1",
    "observable": "residual activity",
    "readout-number": 104
  },
  {
    "item-smiles": "COc1ccc(C(=O)Nc2sc3c(c2C(N)=O)CCCC3)cc1OC",
    "observable": "residual activity",
    "readout-number": 105
  },
  {
    "item-smiles": "Fc1ccc(-c2nc3n(c2-c2ccncc2)CCS3)cc1",
    "observable": "residual activity",
    "readout-number": 109
  },
  {
    "item-smiles": "CC(C)(C)c1cc(C=C(C#N)C#N)cc(Br)c1O",
    "observable": "residual activity",
    "readout-number": 98.2
  },
  {
    "item-smiles": "N#Cc1c[nH]c2c[nH]/c(=N\\Cc3cccnc3)cc2/c1=N\\c1ccc(F)c(Cl)c1",
    "observable": "residual activity",
    "readout-number": 96.5
  }
]

Param item = "O=C(c1cc2cc(O)ccc2[nH]1)c1cc2cc(O)ccc2[nH]1" ; retrieve measured residual activity.
97.3

How about "COc1cc2ncnc(Nc3ccc(OCc4ccccc4)cc3)c2cc1OC" ?
85.3

How about "N#C/C(=C\c1ccc(O)c(O)c1)C(=O)NCc1ccccc1" ?
96.6

How about "COc1ccc2c(c1)/C(=C/c1cnc[nH]1)C(O)=N2" ?
101

How about "COc1ccc2c(c1)c(C1=C(c3c[nH]c4ccccc34)C(=O)NC1=O)cn2CCCN(C)C" ?
74.1
